- Species: Canis familiaris
- PROTOCOL SUMMARY: Maximal contractile response obtained with the agonist (expressed as a percentage of the maximal contraction to phenylephrine in the dog saphenous vein)
- Type: functional, Canis lupus familiaris
Readings of Emax for the listed compounds

> print(dat)
                                   compound  metric  result
1  NC1=NC2(CCc3ccccc3C2)CO1 (configuration not stated)    Emax      76
2  COc1ccc(OC)c2c1CCC1(CN=CN1)C2 (configuration not stated)    Emax     106
3  Clc1ccc2c(c1)CC1(CC2)CN=CN1 (configuration not stated)    Emax      72
4  Clc1cc2c(cc1Cl)CC1(CC2)CN=CN1 (configuration not stated)    Emax      36
5  COc1ccc2c(c1)CCC1(CN=CN1)C2 (configuration not stated)    Emax      60
6  COc1ccc(SC)c2c1CC1(CC2)CN=CN1 (configuration not stated)    Emax      98

Inquiry: Given C1=NCC2(CCc3ccccc3C2)N1 (configuration not stated) , state its recorded Emax.
Reply text: 99
